# Assay target: KIF2C (Homo sapiens, UniProt Q99661)
# Construct: KIF2C (216-598 a.a.); 6xHis (C)
# Sequence (Q99661 216-598): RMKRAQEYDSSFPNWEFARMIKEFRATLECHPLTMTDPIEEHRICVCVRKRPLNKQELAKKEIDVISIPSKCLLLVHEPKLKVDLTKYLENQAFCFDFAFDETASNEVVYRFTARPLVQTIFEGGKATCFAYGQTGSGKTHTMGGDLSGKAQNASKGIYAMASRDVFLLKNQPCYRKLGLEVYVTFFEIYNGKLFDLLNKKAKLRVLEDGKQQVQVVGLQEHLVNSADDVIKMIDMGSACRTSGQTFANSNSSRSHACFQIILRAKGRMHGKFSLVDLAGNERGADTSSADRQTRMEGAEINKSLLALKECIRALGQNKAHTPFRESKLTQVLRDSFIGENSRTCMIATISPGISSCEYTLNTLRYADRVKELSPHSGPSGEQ
# Protocol details: In vitro validation: KIF2C kinesin activity, malachite green-based phosphate colorimetric assay
# Experimental parameters: concentration that inhibits 50% of KIF2C activity
pEC50: −log10 of the molar value.
Catalogue of pEC50 values

| Compound | Assay target | pEC50 |
| --- | --- | --- |
| CCN1CCN(C(=O)COc2ccc(/C=c3\sc4n(c3=O)C(c3cccc(Cl)c3)C(C(=O)OC(C)C)=C(C)N=4)cc2)CC1 (stereo not drawn) | KIF2C (Homo sapiens, UniProt Q99661) | 4.00 to 4.30 |
| CCN1CCN(C(=O)COc2ccc(/C=c3\sc4n(c3=O)C(c3ccc(C)cc3)C(C(=O)OC(C)C)=C(C)N=4)cc2)CC1 (stereo not drawn) | KIF2C (Homo sapiens, UniProt Q99661) | 4.00 to 4.30 |
| CCOC(=O)C1=C(C)N=c2s/c(=C\c3ccc(OCC(=O)N4CCN(CC)CC4)cc3)c(=O)n2C1c1ccc(N(C)C)cc1 (stereo not drawn) | KIF2C (Homo sapiens, UniProt Q99661) | > 4.30 |
